# hERG current change (%, negative = inhibition) at 10uM annotations
# assay system: human ether-à-go-go-related gene (hERG) potassium channel (human, UniProt Q12809);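 note: peak tail current of the secondary pulse compared with the same well before compound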
# Sequence (Q12809 whole entry, looked up): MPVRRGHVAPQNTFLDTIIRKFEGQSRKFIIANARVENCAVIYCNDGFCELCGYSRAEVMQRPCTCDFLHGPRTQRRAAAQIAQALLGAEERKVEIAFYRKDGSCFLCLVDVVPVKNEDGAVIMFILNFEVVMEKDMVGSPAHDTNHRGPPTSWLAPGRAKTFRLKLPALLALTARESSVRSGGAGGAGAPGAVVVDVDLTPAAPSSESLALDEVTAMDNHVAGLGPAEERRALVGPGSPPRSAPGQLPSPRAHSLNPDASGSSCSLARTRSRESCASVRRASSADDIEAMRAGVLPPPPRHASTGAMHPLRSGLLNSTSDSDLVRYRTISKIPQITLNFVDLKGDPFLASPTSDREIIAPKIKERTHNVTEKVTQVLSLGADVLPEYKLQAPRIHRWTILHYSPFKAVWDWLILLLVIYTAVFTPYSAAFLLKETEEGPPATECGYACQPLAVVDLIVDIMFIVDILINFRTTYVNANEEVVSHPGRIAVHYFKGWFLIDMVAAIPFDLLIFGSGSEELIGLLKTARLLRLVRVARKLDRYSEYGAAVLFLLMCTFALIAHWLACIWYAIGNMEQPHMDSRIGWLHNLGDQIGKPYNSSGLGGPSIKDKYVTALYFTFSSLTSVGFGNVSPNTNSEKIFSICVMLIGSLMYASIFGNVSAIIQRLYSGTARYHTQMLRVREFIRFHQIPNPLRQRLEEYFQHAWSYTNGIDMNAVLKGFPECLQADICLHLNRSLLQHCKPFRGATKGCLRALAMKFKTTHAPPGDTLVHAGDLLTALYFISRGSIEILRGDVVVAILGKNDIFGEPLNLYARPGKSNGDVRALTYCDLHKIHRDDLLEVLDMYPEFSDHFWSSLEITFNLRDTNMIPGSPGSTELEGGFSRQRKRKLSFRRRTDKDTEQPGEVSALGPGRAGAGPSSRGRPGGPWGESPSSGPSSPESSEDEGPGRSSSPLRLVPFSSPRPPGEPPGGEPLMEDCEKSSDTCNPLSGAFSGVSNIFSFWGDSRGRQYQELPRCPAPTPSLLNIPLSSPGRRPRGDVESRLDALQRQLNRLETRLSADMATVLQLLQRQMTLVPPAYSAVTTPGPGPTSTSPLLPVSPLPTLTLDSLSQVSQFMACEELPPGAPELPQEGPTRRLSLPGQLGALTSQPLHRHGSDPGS
# measurement protocol: primary screen, population patch clamp on CHO cells stably expressing hERG; higher = less effect of the substance
About 14,000 (4.5%) of roughly 310,000 compounds showed an effect of 50% or more. Effects have a minus sign here. The entries come from a sample that favours strong results as a whole.
reported property: hERG current change (%, negative = inhibition) at 10uM (%)

compound: CCC1(C)Cc2nc3[nH]c(=S)n(-c4ccccc4)c(=O)c3cc2CO1 (stereo not drawn)
recorded number: 17.6
--
compound: CC(=O)c1ccc(-n2nncc2-c2ccc([N+](=O)[O-])cc2)cc1
recorded number: -53.3
--
compound: Cn1c(=O)c2c(ncn2CC(=O)OCC(=O)NC2CCCc3ccccc32)n(C)c1=O (stereo not drawn)
recorded number: 2.36
--
compound: C=CCNC(=O)c1oc2ccc(S(=O)(=O)N3CCC4(CC3)OCCO4)cc2c1C
recorded number: 0.761
--
compound: O=C(CCc1ccccc1Cl)NC1CCCN(c2ccc(C(F)(F)F)cn2)C1 (stereo not drawn)
recorded number: 13.4
--
compound: O=C(NC1CCCN(c2ccc(C(F)(F)F)cn2)C1)c1ccnc(Cl)c1 (stereo not drawn)
recorded number: -55.5
--
compound: CN(C)S(=O)(=O)c1ccc(S(=O)(=O)N2CCN(CCC#N)CC2)cc1
recorded number: -1.43
--
compound: O=C(NC1CCCN(c2ccc(C(F)(F)F)cn2)C1)c1cc(Cl)ccc1F (stereo not drawn)
recorded number: 5.34
--
compound: O=[N+]([O-])c1cccc(-n2nncc2-c2ccccc2)c1
recorded number: -1.23

---

The entries below are paired with their reported hERG current change (%, negative = inhibition) at 10uM.
# assay system: human ether-à-go-go-related gene (hERG) potassium channel (human, UniProt Q12809);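 note: peak tail current of the secondary pulse compared with the same well before compound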
# measurement protocol: primary screen, population patch clamp on CHO cells stably expressing hERG; higher = less effect of the substance
In all, about 310,000 compounds went through this assay and about 14,000 (4.5%) showed an effect of 50% or more. Effects have a minus sign here. The sample holds strong results, similar compounds and a random draw of the others, so the mix is not that of the screen.
reported property: hERG current change (%, negative = inhibition) at 10uM (%)

compound: Cc1ccccc1N1C(=O)C(Oc2ccc(Cl)cc2)C1CNC(C)(C)C (centres unmarked)
recorded number: -39.5
--
compound: Nc1ccc(C(=O)NC23CC4CC(CC(C4)C2)C3)cc1
recorded number: 16.3
--
compound: CCN(CC)S(=O)(=O)c1ccc(NC2c3ccccc3C(=O)N2CCN2CCOCC2)cc1 (centres unmarked)
recorded number: -37
--
compound: CC(C)Cn1c(N)c(C(=O)COC(=O)c2ccccc2Cl)c(=O)n(C)c1=O
recorded number: -41.7
--
compound: CC(=O)c1ccc(N2CCN(C(=O)CCS(=O)(=O)c3ccc4c(c3)CCN4C(C)=O)CC2)cc1
recorded number: 3.77
--
compound: O=C(Oc1ccc(Cl)cc1)c1ccc(COC(=O)c2cnccn2)cc1
recorded number: 14.9
--
compound: CCc1ccc(OCC(=O)OCC(=O)c2c(N)n(C)c(=O)n(C)c2=O)cc1
recorded number: 10.2
--
compound: CCOc1ncccc1C(=O)N(CC)CC(=O)NCc1ccc(F)cc1
recorded number: 7.12
--
compound: COc1ccc(OC)c(/C=N/N(CCC#N)C2=NS(=O)(=O)c3ccccc32)c1
recorded number: 6.86
--
compound: CCCCNCC1C(Oc2ccc(Cl)cc2)C(=O)N1c1ccccc1C.Cl (centres unmarked)
recorded number: -65.9
--
compound: Cc1ccc(C)c(OCCC(=O)OCC(=O)c2c(N)n(C)c(=O)n(C)c2=O)c1
recorded number: -55.5
--
compound: COCCCNCC1C(Oc2ccc(Cl)cc2)C(=O)N1c1ccccc1C (centres unmarked)
recorded number: -8.54
--
compound: CCOCCOc1nc2c(c(=O)n(C)c(=O)n2C)n1CCc1ccccc1
recorded number: 0.435
--
compound: CCc1nc(NCCCCCO)c2nnn(Cc3ccccc3F)c2n1
recorded number: -28.8
--
compound: CCN(CC(=O)NCc1ccc(F)cc1)C(=O)c1cccnc1SC
recorded number: -62.9
--
compound: O=C(N/N=C/c1ccc(Cl)c([N+](=O)[O-])c1)c1cc(-c2ccccc2)nc2ccccc12
recorded number: 17.1
--
compound: CC(=O)Nc1ccc(NS(=O)(=O)c2ccc(-c3cnc(C4CC4)o3)cc2)cc1
recorded number: 3.37
--
compound: CC12CN3CC(C)(CN(C1)C31CCOCC1)C2=O
recorded number: 11.4
--
compound: Cc1ccccc1N1C(=O)C(Oc2ccc(Cl)cc2)C1CNCCCOC(C)C (centres unmarked)
recorded number: -53.4
--
compound: CCc1nc(NCC2CCCN2CC)c2nnn(Cc3ccccc3F)c2n1 (centres unmarked)
recorded number: -54.2

---

# assay system: human ether-à-go-go-related gene (hERG) potassium channel (human);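 note: peak tail current of the secondary pulse compared with the same well before compound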
# measurement protocol: primary screen, population patch clamp on CHO cells stably expressing hERG; higher = less effect of the substance
In all, about 310,000 compounds went through this assay and about 14,000 (4.5%) showed an effect of 50% or more. The effect is printed as a negative number. The sample holds strong results, similar compounds and a random draw of the others, so the mix is not that of the screen.
reported property: hERG current change (%, negative = inhibition) at 10uM (%)

compound: CCCCCC(=O)Nc1ccc(-c2csc(C)n2)cc1
u: %
recorded number: 18.7
--
compound: Cn1c(SCC(=O)N2CCCC2)nc2cccnc21
u: %
recorded number: 16.9
--
compound: CCOC(=O)CNC(=O)CSc1nc2cccnc2n1CC
u: %
recorded number: -7.04
--
compound: O=C(CNC(=O)N1CC(=O)Nc2ccccc21)NCc1cccc(Cl)c1
u: %
recorded number: 12.8
--
compound: COCCCn1c(N)c(C(=O)NCc2ccco2)c2nc3ccccc3nc21
u: %
recorded number: 4.53
--
compound: O=C(Nc1ccc(O)cc1)c1cc2n(n1)C(C(F)(F)F)CC(c1ccco1)N2 (stereo not drawn)
u: %
recorded number: -5.45
--
compound: CSc1ccc(-c2nc(CSCC(=O)NCCCN3CCCC3=O)c(C)o2)cc1
u: %
recorded number: -14.4
--
compound: OC(C#CCN1CCCC1)(c1ccccc1)c1cccc(F)c1 (stereo not drawn)
u: %
recorded number: -16.7
--
compound: Oc1ccc(/C=N/NC(=S)Nc2cccnc2)c(O)c1
u: %
recorded number: 17.5
--
compound: O=C(CSc1nc2cccnc2n1Cc1ccccc1)N1CCCC1
u: %
recorded number: -63.7
--
compound: COc1cc(NS(=O)(=O)c2c(C)[nH]c(C)c2C(=O)N2CCCCC2)cc(OC)c1OC
u: %
recorded number: 5.18
--
compound: COc1ccc(NC(=O)c2ccc(-c3nn(C)c(=O)c4ccccc34)cc2)cc1C(N)=O
u: %
recorded number: 6.4
--
compound: CCOC(=O)CNC(=O)CSc1nc2cccnc2n1C
u: %
recorded number: 7.54
--
compound: Cc1ccc(OCCn2cnc3cc([N+](=O)[O-])ccc3c2=O)cc1
u: %
recorded number: -8.19
--
compound: O=C(Nc1cccc(S(=O)(=O)N2CCOCC2)c1)c1ccc(N2CCCC2=O)cc1
u: %
recorded number: 8.25
--
compound: CCOC(=O)CNC(=O)CSc1nc2cccnc2n1Cc1ccccc1
u: %
recorded number: -53.9
--
compound: OC(C#CCN1CCCC1)(c1ccccc1)c1ccccc1
u: %
recorded number: -28.8
--
compound: COc1cccc(NC(=O)N2CCC(N3CCCCC3)CC2)c1
u: %
recorded number: -7.99
--
compound: COc1cccc(NC(=O)CCNS(=O)(=O)c2ccc3c(c2)CC(C)N3C(=O)C2CC2)c1 (stereo not drawn)
u: %
recorded number: -5.18
--
compound: COc1ccc(CC(=O)N2CC(C)CC(C)C2)cc1OC (stereo not drawn)
u: %
recorded number: 5.21
--
compound: Nc1ccc(C(=O)Nc2cccc(NC(=O)c3ccc(N)cc3)c2)cc1
u: %
recorded number: 17.7

---

Documented hERG current change (%, negative = inhibition) at 10uM across a set of compounds
# assay system: human ether-à-go-go-related gene (hERG) potassium channel (human, UniProt Q12809);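 note: peak tail current of the secondary pulse compared with the same well before compound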
# measurement protocol: primary screen, population patch clamp on CHO cells stably expressing hERG; higher = less effect of the substance
Screen size: about 310,000 compounds; about 14,000 (4.5%) showed an effect of 50% or more. Effects have a minus sign here. The full list was thinned out, with strong results kept by preference.
reported property: hERG current change (%, negative = inhibition) at 10uM (%)

compound: Cc1ccc(-c2noc(CCCN3C(=O)c4ccccc4C3=O)n2)cc1
recorded number: 9.03
--
compound: O=C(O)C(=O)O.O=C(c1ccccc1F)N1CCN(Cc2ccc3c(c2)OCO3)CC1
recorded number: 6.48
--
compound: O=C(CSc1nnc(-c2cnccn2)n1Cc1ccco1)c1ccccc1
recorded number: -16.3
--
compound: CC1=CC(=C(C#N)c2nc3ccccc3s2)C=C(C)N1c1ccc(F)cc1F
recorded number: 13.3
--
compound: C(=C\c1ccccc1)/CSc1nnc(-c2cnccn2)n1Cc1ccco1
recorded number: -73.4
--
compound: O=C1CNC(=O)/C(=C\c2ccccc2)N1
recorded number: 11.8
--
compound: Cc1cc(N2CCCC2)n2nc(C)nc2n1
recorded number: -11.8
--
compound: Cc1cc(N2CCCC2)nc2c(C)cccc12
recorded number: -21.6
--
compound: O=C(OCC(=O)N1CCN(c2ccccc2)CC1)c1cc(Br)ccc1Cl
recorded number: -25.3
--
compound: O=C(c1cc(Cl)nc2ccccc12)N1CCN(Cc2ccc3c(c2)OCO3)CC1
recorded number: -37.9
--
compound: Cc1cc(N2CCCCC2)nc2c(C)cccc12
recorded number: 15
--
compound: CC(NC(=O)c1cc2cc(Cl)ccc2oc1=N)c1ccccc1 (centres unmarked)
recorded number: 7.55
--
compound: CCn1c(SC/C=C/c2ccccc2)nnc1-c1cnccn1
recorded number: -14.7
--
compound: O=C(c1cccn2c(=O)c3cc(Cl)ccc3nc12)N1CCN(Cc2ccc3c(c2)OCO3)CC1
recorded number: -75.2
--
compound: O=C(Cn1cnc2ccccc2c1=O)N1CCN(Cc2ccc3c(c2)OCO3)CC1
recorded number: -14
--
compound: COc1cc2c(cc1OC)C(c1cc(OC)c(OC)cc1[N+](=O)[O-])N(C(C)=O)CC2 (centres unmarked)
recorded number: 26
--
compound: COc1cccc2c(C)cc(N3CCCCCC3)nc12
recorded number: -52.9
--
compound: Cc1nc2ncnn2c(N2CCN(C(=O)c3cccc(F)c3)CC2)c1C
recorded number: -49.3
--
compound: CCCn1c2ccccc2c2cnn(CC(=O)NCCCN3CCCCC3)c(=O)c21
recorded number: -53.4
--
compound: COc1ccc(N2C(=O)c3ccc(NC(C)=O)cc3C2=O)cc1
recorded number: 20.2
--
compound: Cc1cc(Nc2ccc(F)c(Cl)c2)n2nc(C)nc2n1
recorded number: -18
--
compound: CC(NC(=O)COC(=O)CCNC(=O)c1ccco1)C12CC3CC(CC(C3)C1)C2 (centres unmarked)
recorded number: 0.656
--
compound: O=C(Cn1ccc2ccccc2c1=O)N1CCN(Cc2ccc3c(c2)OCO3)CC1
recorded number: -14.8
--
compound: Clc1ccc(CSc2nnc(-c3ccncc3)o2)cc1
recorded number: -11.5
--
compound: O=C(c1cccn2c(=O)c3ccccc3nc12)N1CCN(Cc2ccc3c(c2)OCO3)CC1
recorded number: -67.7
--
compound: Fc1cccc(CNCCc2c[nH]c3ccccc23)c1.O=C(O)C(=O)O
recorded number: -7.63
--
compound: O=C(c1ccc2nc3ccccc3c(=O)n2c1)N1CCN(Cc2ccc3c(c2)OCO3)CC1
recorded number: -60.9
--
compound: Cc1ccccc1Cn1c2ccccc2c2cnn(CC(=O)NCCCN3CCN(C)CC3)c(=O)c21
recorded number: -3.23
--
compound: COc1ccc(Nc2cc(C)nc3ncnn23)cc1Cl
recorded number: -39.5
--
compound: COc1cc(CN2CCN(c3cc(C)ccc3C)CC2)cc([N+](=O)[O-])c1O
recorded number: 7.26
--
compound: O=C(CSc1nnc(-c2ccccn2)n1Cc1ccco1)c1ccccc1
recorded number: -42.5
--
compound: CCCn1c2ccccc2c2cnn(CC(=O)NC3CCC(C)CC3)c(=O)c21 (centres unmarked)
recorded number: 9.11
--
compound: CCCc1cc2c(cc1NC(=O)c1ccc(C(C)(C)C)cc1)OCO2
recorded number: -13.8
--
compound: COc1ccc([N+](=O)[O-])cc1NC(=O)COC(=O)/C=C/c1ccco1
recorded number: 1.54
--
compound: CCOC(=O)N1CCN(c2cc(C)nc3nc(C)nn23)CC1
recorded number: -32.9
--
compound: CC(/C=N/Nc1ncc(C)c(=O)[nH]1)=C\c1ccccc1
recorded number: -53
--
compound: Cc1cc(N2CCN(c3cccc(C(F)(F)F)c3)CC2)n2ncnc2n1
recorded number: -37
--
compound: O=C(CSc1nc2[nH]ncc2c(=O)[nH]1)Nc1cccc(Cl)c1
recorded number: 4.2
--
compound: CCOc1cc(NC(=S)NCC2CCCO2)c(OCC)cc1NC(=O)C1CC1 (centres unmarked)
recorded number: 36.2
--
compound: CC(NC(=O)c1ccco1)C12CC3CC(CC(C3)C1)C2 (centres unmarked)
recorded number: -50.1
--
compound: O=C(COC(=O)c1cc(-c2ccccc2)nc2ccccc12)NCC1CCCO1 (centres unmarked)
recorded number: -22.4

Source: paper PMC4336329
